Biological target: Left-right determination factor 2 (Homo sapiens)
Experiment: LEFTY2 binders on small-molecule microarrays, primary screen, biochemical, small-molecule microarray, 635 nm fluorescence scan (AID 1110)
Details: LEFTY2 binding, higher = more signal

# Molecule Smiles, composite z-score
measured = [
    ("COc1ccc(-c2cc3c(c(CCc4ccccc4)n2)[Si](C(C)C)(C(C)C)OC3)cn1", 0.209),
    ("C=C(/C(=C/C[C@H](OC(=O)c1ccncc1)c1ccc(CO)o1)c1cc(C(=O)OC)ccc1OC)C(C)C", 0.34),
    ("O=C1O[C@H](c2ccccc2)[C@H](c2ccccc2)N2[C@H]1[C@@H](C(=O)Nc1nc3ccccc3s1)[C@]1(C(=O)Nc3ccc(C#CCCO)cc31)[C@H]2c1ccc(O)cc1", 0.691),
    ("COC(=O)c1ccc([C@H](NC(=O)c2ccco2)[C@]2(C)C[C@H]2C2CCCCC2)cc1", -1.6),
    ("O=C1c2ccccc2[C@](Cc2ccccc2I)(C(=O)NCC(F)(F)F)[C@H](c2ccc(CO)cc2)N1C1CCCCC1", 0.133),
    ("COc1ccc(CCNC(=O)[C@@H]2c3ccccc3C(=O)N(Cc3cc(C(F)(F)F)cc(C(F)(F)F)c3)[C@H]2c2ccc(CO)cc2)cc1", -0.31),
    ("C=CCN1C(=O)[C@@]2(O[C@@H](CCn3cc([C@H](O)c4ccccc4)nn3)[C@H]([Si](C)(C)c3ccc(OC)cc3)[C@H]2C)c2cc(N3CCC3=O)ccc21", 0.225),
    ("CCOC(=O)C[C@H]1[C@H](OC(=O)c2cc3ccccc3oc2=O)[C@@H](NC(=O)Cc2ccc(OC)cc2)c2cc(OCCCO)ccc2N1C(=O)c1ccc2ccccc2n1", 0.774),
]

###

Assay: adipocyte viability effects, profiling panel, cell-based, 3T3-L1 adipocytes, calcein-AM fluorescence, 48 h, basal (AID 1163); further: test concentration not given here
Conditions: 3T3-L1 adipocytes viability, higher = more signal

# Compound, z-score
data = [
    ("CN1C(=O)C2C=CC(C(O)C#Cc3ccccc3)N(Nc3ccccc3)C2C1=O (stereo not drawn)", -0.341),
    ("O=C1C[C@@](C(=O)NCCN2CCOCC2)(c2ccc([N+](=O)[O-])cc2)[C@@H](c2ccc(CO)cc2I)N1C1CCCCC1", 0.267),
    ("CN(C)CCCCNC(=O)[C@@H]1C[C@@H]2C(=O)N[C@@H](Cc3ccccc3)C(=O)N2[C@@H]1c1cccc(OCCO)c1", 0.296),
]

###

Molecular target: Left-right determination factor 2 (Homo sapiens)
Test: LEFTY2 binders on small-molecule microarrays, primary screen, biochemical, small-molecule microarray, 635 nm fluorescence scan (AID 1110)
Details: LEFTY2 binding, higher = more signal

# Molecule, Tested On, composite z-score
records = [
    ("COCCCNC(=O)[C@@]1(Cc2ccccc2N=[N+]=[N-])N=C(c2ccc(OCCCO)cc2)O[C@H]1c1ccccc1", "Left-right determination factor 2 (Homo sapiens)", -0.394),
    ("O=C1O[C@@H](c2ccccc2)[C@@H](c2ccccc2)N2[C@@H](c3ccccc3OCCO)[C@]3(C(=O)Nc4ccc(C#CCCO)cc43)[C@@H](C(=O)N3CCCCCCC3)[C@H]12", "Left-right determination factor 2 (Homo sapiens)", 1.82),
    ("NCCCCCNC(=O)[C@@H]1C[C@@H]2C(=O)NCC(=O)N2[C@@H]1c1cccc(OCCO)c1", "Left-right determination factor 2 (Homo sapiens)", 0.79),
    ("CCCCN1CC=CC23O[C@@H]4/C=C\\CCC(C)OC(=O)C4[C@H]2C(=O)N(C(CO)C(C)C)[C@@H]3C1=O (stereo not given in full)", "Left-right determination factor 2 (Homo sapiens)", -0.406),
    ("C=C(CCCC)/C(=C/C[C@@H](OC(=O)c1ccncc1)c1ccccc1OCCO)c1cnc2ccccc2c1", "Left-right determination factor 2 (Homo sapiens)", 0.845),
    ("Cc1ccc(S[C@]2(C(=O)O)CC(=O)N(Cc3cc(C(F)(F)F)cc(C(F)(F)F)c3)[C@@H]2c2ccc(CO)cc2)cc1", "Left-right determination factor 2 (Homo sapiens)", -2.28),
    ("O=C1C2C=CC(C(O)c3ccccc3)N(Nc3ccccc3F)C2C(=O)N1c1ccccc1 (stereo not given)", "Left-right determination factor 2 (Homo sapiens)", -0.0935),
    ("COC(=O)[C@@]1(Cc2ccc(OC)cc2)[C@H]2c3cc(C(=O)N(C)C)n(Cc4ccc(Cl)c(C(F)(F)F)c4)c3C[C@H]2CN1C(=O)c1ccccc1", "Left-right determination factor 2 (Homo sapiens)", -0.566),
    ("CCOC(=O)C1=CC[C@@H](c2ccccc2C(F)(F)F)N(S(=O)(=O)c2ccc(C)cc2)[C@H]1c1ccc(C#N)cc1", "Left-right determination factor 2 (Homo sapiens)", 0.327),
    ("C=C(COC)C(=O)CC[C@@H](OC(=O)c1cccnc1)c1ccc(OCCO)cc1", "Left-right determination factor 2 (Homo sapiens)", 0.659),
    ("Cc1ccc(S[C@]2(C(=O)NCC(F)(F)F)CC(=O)N(Cc3ccccc3)[C@@H]2c2ccc(CO)cc2I)cc1", "Left-right determination factor 2 (Homo sapiens)", -0.842),
    ("C=CCN1C(=O)[C@@]2(CCS(=O)(=O)c3ccccc3)N=C(c3ccc(OCCCO)cc3)O[C@H]2c2ccccc21", "Left-right determination factor 2 (Homo sapiens)", 0.876),
    ("COc1ccc(NC(=O)O[C@H]2[C@H](OC(=O)Nc3ccccc3)[C@@H](OC(=O)Nc3ccccc3)[C@@H](OC)O[C@@H]2CO)cc1", "Left-right determination factor 2 (Homo sapiens)", 0.298),
    ("Cc1ccc(S[C@]2(C(=O)NCC(F)(F)F)CC(=O)N(Cc3ccccc3C(F)(F)F)[C@@H]2c2ccc(CO)cc2I)cc1", "Left-right determination factor 2 (Homo sapiens)", -2.12),
    ("N#Cc1ccc(C(O)C2C=CC3C(=O)N(c4ccccc4)C(=O)C3N2Nc2ccccc2)cc1 (stereo not given)", "Left-right determination factor 2 (Homo sapiens)", -0.224),
]
